Data origin: paper PMC6713104

Albumin values for the molecules below.
Experiment: Renal or kidney function test
Type: in vivo
Details: mice, 10 mg/kg, After
From the text: Twenty-four hours before the injecting the compounds, the blood sample of five mice was taken and it was also taken after the last day of treatment, the animals were sacrificed by cervical dislocation and the blood samples were collected by heart puncture. […]
Field: numeric (g/dL). Do not append units.

Bench note: what Albumin did Cc1ccc(S(=O)(=O)NC(C)C(=O)NCC(=O)Nc2cccc(Cl)c2)cc1 (stereo not shown) show? 3.9

# repeat for Cc1ccc(NC(=O)CNC(=O)C(C)NS(=O)(=O)c2ccccc2)cc1 (stereo not shown) 3.5

# repeat for Cc1ccc(S(=O)(=O)NC(C)C(=O)NCC(=O)Nc2cccc(F)c2)cc1 (stereo not shown) 4.0

Query molecule follows.
Bench note: what Albumin did CC(NS(=O)(=O)c1ccccc1)C(=O)NCC(=O)Nc1cccc(F)c1 (stereo not shown) show? 3.0

###

Assay: Haematological analysis
Type: in vivo, mice
Settings: Before treatment
value.kind: HB (g/dL)
Field: numeric (g/dL). Do not append units.

Bench note: what HB did Cc1ccc(S(=O)(=O)NC(C)C(=O)NCC(=O)Nc2cccc(F)c2)cc1 (stereo not shown) show? 13.5

Others:
Bench note: what HB did Cc1ccc(NC(=O)CNC(=O)C(C)NS(=O)(=O)c2ccccc2)cc1 (stereo not shown) show? 14.1

# repeat for CC(NS(=O)(=O)c1ccccc1)C(=O)NCC(=O)Nc1cccc(F)c1 (stereo not shown) 14.5

# repeat for Cc1ccc(S(=O)(=O)NC(C)C(=O)NCC(=O)Nc2cccc(Cl)c2)cc1 (stereo not shown) 13.4

###

WBC values for the molecules below.
Assay: Haematological analysis
Type: in vivo, mice
Conditions: Before treatment

Bench note: what WBC did Cc1ccc(S(=O)(=O)NC(C)C(=O)NCC(=O)Nc2cccc(Cl)c2)cc1 (stereo not shown) show? 9.4 × 10^3 mm^3

# repeat for CC(NS(=O)(=O)c1ccccc1)C(=O)NCC(=O)Nc1cccc(F)c1 (stereo not shown) 10.3 × 10^3 mm^3

# repeat for Cc1ccc(NC(=O)CNC(=O)C(C)NS(=O)(=O)c2ccccc2)cc1 (stereo not shown) 12.2 × 10^3 mm^3

Others:
Bench note: what WBC did Cc1ccc(S(=O)(=O)NC(C)C(=O)NCC(=O)Nc2cccc(F)c2)cc1 (stereo not shown) show? 8.0 × 10^3 mm^3

###

Test: Liver function tests
Assay type: in vivo
Settings: mice, 10 mg/kg, Before
value.kind: AST (µ/L)
Field: numeric (µ/L). Do not append units.

# count of solved cases: 3
Bench note: what AST did Cc1ccc(S(=O)(=O)NC(C)C(=O)NCC(=O)Nc2cccc(Cl)c2)cc1 (stereo not shown) show? 65.0

# repeat for Cc1ccc(S(=O)(=O)NC(C)C(=O)NCC(=O)Nc2cccc(F)c2)cc1 (stereo not shown) 65.0

# repeat for Cc1ccc(NC(=O)CNC(=O)C(C)NS(=O)(=O)c2ccccc2)cc1 (stereo not shown) 64.0

Query compound follows.
Bench note: what AST did CC(NS(=O)(=O)c1ccccc1)C(=O)NCC(=O)Nc1cccc(F)c1 (stereo not shown) show? 62.0

###

Test system: Plasmodium berghei infection in mice
Assay: In vivo antimalaria test
Conditions: Plasmodium berghei, 288 h, read-out: % inhibition 12 days post-treatment (100 mg/kg); P. berghei infected mice, oral, 100 mg/kg, day 12
Non-standard residues stand in square brackets, D forms with d. Residues, ends and D or L forms follow the SMILES beside them. ξ: configuration not given here. *: point of attachment. Tos = Cc1ccc(S(=O)(=O)*)cc1; βNA = c1ccc2cc(N*)ccc2c1; NHPh = c1ccc(N*)cc1; ξA = CC(N)C(=O)O
The recorded inhibition in vivo at 100 mg/kg of each item maps onto one of these classes: label 0 = under 40%, label 1 = from 40% up to 60%, label 2 = 60% and over

Hey, which category is Cc1ccc(S(=O)(=O)NC(C)C(=O)NCC(=O)Nc2ccc3ccccc3c2)cc1 (stereo not shown) [Compound 7n] (Tos-[ξA]-Gly-βNA) in, do you know? label 1

# repeat for C[C@@H]1CC[C@H]2[C@@H](C)C(=O)O[C@@H]3O[C@@]4(C)CC[C@@H]1[C@]32OO4 [Artemisinin, reference compound] label 2

# repeat for Cc1ccc(NC(=O)CNC(=O)C(C)NS(=O)(=O)c2ccccc2)cc1 (stereo not shown) label 2

# repeat for CC(NS(=O)(=O)c1ccccc1)C(=O)NCC(=O)Nc1ccc2ccccc2c1 (stereo not shown) label 0

# repeat for Cc1ccc(NC(=O)CNC(=O)C(C)NS(=O)(=O)c2ccc(C)cc2)cc1 (stereo not shown) label 1

# repeat for CC(NS(=O)(=O)c1ccccc1)C(=O)NCC(=O)Nc1ccc(Cl)cc1 (stereo not shown) label 1

# repeat for CC(NS(=O)(=O)c1ccccc1)C(=O)NCC(=O)Nc1ccccc1 (stereo not shown) label 1

# repeat for Cc1ccc(S(=O)(=O)NC(C)C(=O)NCC(=O)Nc2ccc(F)cc2)cc1 (stereo not shown) label 1

# repeat for Cc1ccc(S(=O)(=O)NC(C)C(=O)NCC(=O)Nc2cccc(Cl)c2)cc1 (stereo not shown) label 1

# repeat for CC(NS(=O)(=O)c1ccccc1)C(=O)NCC(=O)Nc1cccc(Cl)c1 (stereo not shown) label 1

# repeat for CC(NS(=O)(=O)c1ccccc1)C(=O)NCC(=O)Nc1cccc(F)c1 (stereo not shown) label 1

# repeat for Cc1ccc(S(=O)(=O)NC(C)C(=O)NCC(=O)Nc2ccccc2)cc1 (stereo not shown) [Compound 7m] (Tos-[ξA]-Gly-NHPh) label 0

# repeat for Cc1ccc(S(=O)(=O)NC(C)C(=O)NCC(=O)Nc2cccc(F)c2)cc1 (stereo not shown) label 2
